Read-out: Caspase-3 (Homo sapiens) (UniProt P42574)
Sequence (P42574 whole entry, looked up): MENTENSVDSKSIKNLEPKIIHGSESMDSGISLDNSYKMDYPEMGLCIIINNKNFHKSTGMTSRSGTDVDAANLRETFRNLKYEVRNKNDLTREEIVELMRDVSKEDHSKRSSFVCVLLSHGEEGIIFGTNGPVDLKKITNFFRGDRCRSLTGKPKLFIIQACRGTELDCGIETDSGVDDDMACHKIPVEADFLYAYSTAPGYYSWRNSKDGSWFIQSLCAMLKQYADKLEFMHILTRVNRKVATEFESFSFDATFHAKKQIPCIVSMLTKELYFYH
Test summary: LTEA_HepaRG_CASP3: Life Technologies and Expression Analysis (LTEA) Assay for cysteine-aspartic acid protease (CASP3) using HepaRG (AID 2283477)
Settings: mRNA level, 48 h; actives raise or lower the signal
Calls of active or inactive are those of the source. How the source made its calls: active means hit-call score of the fitted dose curve at least 0.9, where 1 is the maximum; inactive means score below 0.9.
Labels: true = active, false = inactive

[[record]]
compound = "CCC(=O)Nc1ccc(Cl)c(Cl)c1"
group = "false"

[[record]]
compound = "N#CSCSC#N"
group = "false"

[[record]]
compound = "CC(Oc1cccc(Cl)c1)C(=O)O (stereo not drawn)"
group = "false"

[[record]]
compound = "O=C(O)c1cc(Oc2ccc(C(F)(F)F)cc2Cl)ccc1[N+](=O)[O-]"
group = "false"

[[record]]
compound = "CSc1nc(NC(C)C)nc(NC(C)C)n1"
group = "false"

[[record]]
compound = "COP(=O)(OC)OC(Br)C(Cl)(Cl)Br (stereo not drawn)"
group = "false"

[[record]]
compound = "CCOP(=S)(OCC)SCCSCC"
group = "false"

[[record]]
compound = "CCCCOC(=O)[C@@H](C)Oc1ccc(Oc2ccc(C#N)cc2F)cc1"
group = "false"

[[record]]
compound = "Nc1nc(N)nc(NC2CC2)n1"
group = "false"

[[record]]
compound = "COc1cc(OC)nc(Sc2cccc(Cl)c2C(=O)O)n1"
group = "false"

[[record]]
compound = "CC1=NNC(=O)N(/N=C/c2cccnc2)C1"
group = "false"

[[record]]
compound = "Cc1cc(C2CC2)nc(Nc2ccccc2)n1"
group = "false"

[[record]]
compound = "CSc1nnc(C(C)(C)C)c(=O)n1N"
group = "false"

[[record]]
compound = "CCOC(=O)CC(SP(=O)(OC)OC)C(=O)OCC (stereo not drawn)"
group = "false"

[[record]]
compound = "COc1cccc(C(=O)NN(C(=O)c2cc(C)cc(C)c2)C(C)(C)C)c1C"
group = "false"

[[record]]
compound = "Nc1c(Cl)cc([N+](=O)[O-])cc1Cl"
group = "true"

[[record]]
compound = "COP(=O)(OC)C(O)C(Cl)(Cl)Cl (stereo not drawn)"
group = "false"

[[record]]
compound = "CNC(=O)ON=C(C)SC"
group = "false"

[[record]]
compound = "CCCCOC(=O)c1ccccc1C(=O)O"
group = "false"

[[record]]
compound = "C#CC(C)(C)NC(=O)c1cc(Cl)cc(Cl)c1"
group = "false"

[[record]]
compound = "CC(=NC#N)N(C)Cc1ccc(Cl)nc1"
group = "false"

[[record]]
compound = "CC(C1CC1)C(O)(Cn1cncn1)c1ccc(Cl)cc1 (stereo not drawn)"
group = "false"

[[record]]
compound = "CCOP(=S)(Oc1cnc(C(C)(C)C)nc1)OC(C)C (stereo not drawn)"
group = "false"

[[record]]
compound = "CN(C)C(=O)Nc1cccc(C(F)(F)F)c1"
group = "false"

[[record]]
compound = "Cc1ccn2nc(S(=O)(=O)Nc3c(F)cccc3F)nc2n1"
group = "false"

[[record]]
compound = "CCOP(=S)(OCC)Oc1ccc2c(C)c(Cl)c(=O)oc2c1"
group = "false"

[[record]]
compound = "CCOC(=O)COc1cc(-c2nn(C)c(OC(F)F)c2Cl)c(F)cc1Cl"
group = "false"

[[record]]
compound = "CCCCSP(=O)(SCCCC)SCCCC"
group = "false"

